study-target: human APJ receptor (Homo sapiens (Human))
procedure-text: [35S]GTPγS binding assay on membranes from CHO cells stably expressing human APJ receptor
run-conditions: membranes of CHO cells stably expressing human APJ receptor, read-out: Activity hAPJ SPA EC50 IP
pEC50: −log10 of the molar value.
Would you mind labelling by pEC50? At or over 9 is satisfied, under is not satisfied.

Say whether COc1cccc(-c2nnc(NS(=O)(=O)[C@@H](C)[C@H](OC)c3ncc(Cl)cn3)n2CC[S@+](C)[O-])n1 (single isomer, unassigned) [Example 94.0] shows pEC50 of 9 or more.
not satisfied

Determine whether this molecule has pEC50 no lower than 9: COc1cccc(-c2nnc(NS(=O)(=O)[C@@H](C)[C@H](OC)c3ncc(Cl)cn3)n2[C@H](C)[C@@H]2CCCCO2)n1 (racemic) [Example 319.0]
satisfied

// inclusive: pEC50 at least 9? input: `COc1cccc(-c2nnc(NS(=O)(=O)[C@@H](C)[C@H](OC)c3ncc(Cl)cn3)n2C(C)C)n1`
not satisfied

Test whether the molecule COc1cccc(-c2nnc(NS(=O)(=O)[C@@H](C)[C@@H](OC(C)C)c3ncc(C)cn3)n2[C@H](C)[C@@H]2CCCCO2)n1 (single isomer, unassigned) [Example 321.0] records pEC50 of 9 or higher.
not satisfied

Is the recorded value of pEC50 equal to or greater than 9 for this molecule? `COc1cccc(-c2nnc(NS(=O)(=O)[C@@H](C)[C@H](OC)c3ncc(Cl)cn3)n2C2(CF)CC2)n1`
satisfied

Does the molecule `COCC(COC)n1c(NS(=O)(=O)[C@@H](C)[C@H](OC)c2cnc(C)cn2)nnc1-c1cccc(OC)n1` have recorded pEC50 that is 9 or more?
not satisfied

---

Parameter log10(EC50): see the listing below.
study-target: human APJ receptor (Homo sapiens (Human), UniProt P35414)
Sequence (P35414 whole entry): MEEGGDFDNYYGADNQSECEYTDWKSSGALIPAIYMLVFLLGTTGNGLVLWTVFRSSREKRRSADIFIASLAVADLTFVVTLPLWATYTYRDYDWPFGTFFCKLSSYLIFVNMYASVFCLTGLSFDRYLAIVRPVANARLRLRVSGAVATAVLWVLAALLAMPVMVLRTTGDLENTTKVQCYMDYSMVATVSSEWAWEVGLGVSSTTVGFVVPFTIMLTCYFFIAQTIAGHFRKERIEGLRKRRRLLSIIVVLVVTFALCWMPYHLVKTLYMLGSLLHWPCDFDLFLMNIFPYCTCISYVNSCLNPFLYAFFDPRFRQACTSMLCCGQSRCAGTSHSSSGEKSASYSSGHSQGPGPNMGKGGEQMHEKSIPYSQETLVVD
procedure-text: [35S]GTPγS binding assay on membranes from CHO cells stably expressing human APJ receptor
run-conditions: membranes of CHO cells stably expressing human APJ receptor, read-out: Activity hAPJ SPA EC50 IP
Base-10 log of EC50, unit nM.

Look over these answered cases.
Answer with the recorded log10(EC50) for the compound listed here: `COC[C@H](C)n1c(NS(=O)(=O)[C@@H](C)[C@H](C)c2ncc(Cl)cn2)nnc1-c1cncc(C)c1`
2.04

Input `COCC(COC)n1c(NS(=O)(=O)[C@@H](C)[C@@H](OC(C)C)c2ncc(Cl)cn2)nnc1-c1cncc(C)c1` , output reported log10(EC50).
1.90

For the compound COc1cccc(-c2nnc(NS(=O)(=O)[C@@H](C)[C@H](C)c3ncc(Cl)cn3)n2[C@@H](C)c2ncnn2C)n1 (single isomer, unassigned) [Example 251.0] , give its reported log10(EC50).
0.23

Look up and report measured log10(EC50) for this entry: CO[C@H](c1ncc(Cl)cn1)[C@H](C)S(=O)(=O)Nc1nnc(-c2cncc(C)c2)n1C1CC12CC2 (mixture of isomers)
2.00

Query compound follows.
Return the recorded log10(EC50) value; entry: CC[C@@H](c1c(C)noc1C)n1c(NS(=O)(=O)[C@@H](C)[C@@H](OC(C)C)c2ncc(C)cn2)nnc1-c1cccc(OC)n1 (single isomer, unassigned) [Example 220.0]
1.74

---

Readings of EC50 for the listed molecules
study-target: human APJ receptor (Homo sapiens (Human), UniProt P35414)
procedure-text: [35S]GTPγS binding assay on membranes from CHO cells stably expressing human APJ receptor
run-conditions: membranes of CHO cells stably expressing human APJ receptor, read-out: Activity hAPJ SPA EC50 IP
// note: answer is a bare numeric in nM

Note down EC50 recorded for `COCC1(n2c(NS(=O)(=O)[C@@H](C)[C@H](OC)c3ncc(C)cn3)nnc2-c2ccccn2)CC1`
24

Supply EC50 value. Item: `COc1cccc(-c2nnc(NS(=O)(=O)[C@@H](C)[C@H](OC)c3cnc(C)cn3)n2Cc2ccno2)n1`
210

Item COc1cccc(-c2nnc(NS(=O)(=O)[C@@H](C)[C@H](OC)c3ncc(Cl)cn3)n2[C@H](C)c2cc(F)cc(F)c2)n1 (single isomer, unassigned) [Example 341.0] : provide EC50
0.13

Please indicate EC50 recorded for COc1cccc(-c2nnc(NS(=O)(=O)[C@@H](C)[C@H](OC)c3ncc(Cl)cn3)n2[C@H](C)[C@@H]2CCCCO2)n1 (single isomer, unassigned) [Example 317.0]
0.71

Next:
Answer with the recorded EC50 for the molecule listed here: `CO[C@H](c1ncc(Cl)cn1)[C@H](C)S(=O)(=O)Nc1nnc(-c2ccncc2)n1C(C)C`
1900

// fetch EC50 given entry COc1cccc(-c2nnc(NS(=O)(=O)[C@@H](C)[C@H](OC)c3ncc(Cl)cn3)n2[C@@H](C)c2ncn(C)n2)n1 (single isomer, unassigned) [Example 236.0]
7.2

Note down EC50 recorded for `COc1cccc(-c2nnc(NS(=O)(=O)[C@@H](C)[C@@H](OC(C)C)c3cnc(C)cn3)n2C2CC2)n1`
5.6

Look up and report measured EC50 for this entry: CC[C@@H](c1c(C)noc1C)n1c(NS(=O)(=O)[C@@H](C)[C@@H](OC(C)C)c2ncc(C)cn2)nnc1-c1cccc(OC)n1 (single isomer, unassigned) [Example 221.0]
14
